Molecular target: monoamine oxidase A/B
Assay: Inhibition of monoamine oxidase A/B catalytic activity (mouse brain mitochondria, tyramine substrate)
Details: estimated; mouse brain mitochondrial protein 0.22-0.24 mg/mL; 150-166 μM tyramine; pH 7.4, 37° C.
MEASURE NAME: IC50

IN: Please give the measured IC50 for this compound: O=C(CCn1cnc2c(=O)[nH]cnc21)NCCc1c[nH]c2ccc(O)cc12
OUT: ~2000 nM
